# SYSTEM_NAME: T1, Mex67ΔUBA L263Y+M265Y;Mtr2 (Saccharomyces cerevisiae;Saccharomyces …, UniProt Q99257;P34232 1-487;1-184, L263Y;M265Y|)
# T1 sequence 1: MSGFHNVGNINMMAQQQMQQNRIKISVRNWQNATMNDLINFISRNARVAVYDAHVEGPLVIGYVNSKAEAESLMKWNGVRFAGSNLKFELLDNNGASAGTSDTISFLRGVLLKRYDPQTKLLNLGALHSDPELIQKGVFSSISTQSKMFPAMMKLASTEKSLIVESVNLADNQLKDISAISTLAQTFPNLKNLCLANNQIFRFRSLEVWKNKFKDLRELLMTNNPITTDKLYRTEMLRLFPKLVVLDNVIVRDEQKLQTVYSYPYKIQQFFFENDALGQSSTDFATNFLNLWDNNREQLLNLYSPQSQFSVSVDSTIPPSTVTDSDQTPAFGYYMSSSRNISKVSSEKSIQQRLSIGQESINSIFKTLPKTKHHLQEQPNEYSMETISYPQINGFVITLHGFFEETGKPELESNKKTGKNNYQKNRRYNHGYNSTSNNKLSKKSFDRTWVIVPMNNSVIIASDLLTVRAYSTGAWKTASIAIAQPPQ
# T1 sequence 2: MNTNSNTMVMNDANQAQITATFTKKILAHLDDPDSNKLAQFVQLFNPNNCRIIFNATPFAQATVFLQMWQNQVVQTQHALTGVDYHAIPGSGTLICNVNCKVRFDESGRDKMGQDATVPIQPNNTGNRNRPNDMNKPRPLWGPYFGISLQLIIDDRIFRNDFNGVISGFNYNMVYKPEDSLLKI
# MEASUREMENT_NOTES: fluorescence anisotropy; 20 mM Tris pH 8.0, 50 mM NaCl, 10 nM DY-547 RNA; temperature not stated
# CONDITION_DESCRIPTION: protein: recombinant;recombinant; tags: His6 removed by TEV;; copies: 1;1
ENDPOINT_LABEL: pKd
Give bare numbers, as −log10 of the molar value.

Any idea what pKd was measured for AAAAAAAAAAAAAAA (ssRNA) [A15] ? 6.38

Data origin: paper PMC4330389
